Catalogue of T/C readings, one per entry.
- Test system: L1210 leukemia ip in BDF1 mice, survival T/C
- experiment.notes: NCI In Vivo Anticancer Drug Screen. Data for tumor model L1210 Leukemia (intraperitoneal) in B6D2F1 (BDF1) mice
- conditions: endpoint: mean survival time; dose: 400.0 mg/kg/injection; schedule: Q01DX009 (ip); vehicle: saline with Tween-80; higher = longer survival
- Protocol: The antitumor activity of compounds was measured in mice bearing transplantable tumors. Survival or tumor size were measured and the results are expressed as the measurement made in the treated group (T) divided by the measurement made in the vehicle treated control group (C). The tumor model used in this assay is L1210 Leukemia (intraperitoneal) in B6D2F1 (BDF1) mice
Toxic doses and inconclusive results are not listed.

compound | T/C
CCOC(=O)c1c(Cl)c(Cl)c(Cl)c(Cl)c1C(=O)OCC | 93 % of control
C/C=C\c1ccc(OCCOC(=O)Nc2c(C)cccc2C)c(OC)c1 | 87 % of control

Next up:
Asked: Retrieve T/C on L1210 leukemia ip in BDF1 mice, survival T/C; query CC1(c2ccco2)NC(=O)NC1=O (stereo not drawn)
Given back: 98 % of control

---

Catalogue of T/C readings, one per entry.
- System: L1210 leukemia ip in BDF1 mice, survival T/C
- experiment.notes: NCI In Vivo Anticancer Drug Screen. Data for tumor model L1210 Leukemia (intraperitoneal) in B6D2F1 (BDF1) mice
- conditions: endpoint: mean survival time; dose: 50.0 mg/kg/injection; schedule: Q01DX001 (ip); vehicle: saline; higher = longer survival
Toxic doses and inconclusive results are not listed.

These solved cases illustrate the format of a correct answer.
molecule | observable | result
NCCC1CNCCN1.[Cl][Pd]([Cl])([Cl])[Cl] (centres undefined) | T/C | 103 % of control
C1C[S+]2CCN1CC2 | T/C | 95 % of control
Cc1ccc2c([nH]1)c(C)cc1nc3ccccc3c12 | T/C | 95 % of control

Asked: Quote T/C reported for c1nnc(NCNc2nncs2)s1 please.
Given back: 110 % of control

---

- Test system: L1210 leukemia ip in BDF1 mice, survival T/C
- experiment.notes: NCI In Vivo Anticancer Drug Screen. Data for tumor model L1210 Leukemia (intraperitoneal) in B6D2F1 (BDF1) mice
- conditions: endpoint: mean survival time; dose: 100.0 mg/kg/injection; schedule: Q04DX002 (ip); vehicle: saline with Tween-80; higher = longer survival
Inconclusive results and toxic doses are left out.
Catalogue of T/C readings, one per entry.

These solved cases illustrate the format of a correct answer.
molecule | result
COc1cccc(C2NC(=O)CCC2[N+](=O)[O-])c1OC (centres undefined) | 105 % of control
NC(=O)c1cc(Cl)ccn1 | 101 % of control
Cc1ccc(S(=O)(=O)C[n+]2ccccc2)cc1 | 98 % of control

Asked: Quote T/C reported for O=C(/C=C/c1ccc(Cl)c(Cl)c1)C1CCC2CCCCC2C1 (centres undefined) please.
Given back: 105 % of control

Asked: Quote T/C reported for CCCCCCCCCCCCBr please.
Given back: 102 % of control

Asked: Quote T/C reported for COc1ccc(NC(=O)Nc2ccc(Cl)cc2OC)cc1 please.
Given back: 89 % of control

Asked: Quote T/C reported for c1ccc(-c2cn[nH]c2-c2ccccc2)cc1 please.
Given back: 103 % of control

Asked: Quote T/C reported for CCc1cc2c(cc1C(=O)/C=C\c1ccco1)C(C)(C)CCC2(C)C please.
Given back: 96 % of control

Asked: Quote T/C reported for O=C1OC(/C=C/c2ccccc2)=NC/1=C\c1ccccc1O please.
Given back: 92 % of control

Asked: Quote T/C reported for O=C1NC(c2ccc(Cl)cc2)N2C(=O)NC(c3ccc(Cl)cc3)N12 (centres undefined) please.
Given back: 94 % of control

Asked: Quote T/C reported for O=C1OC(c2ccccc2)=N/C1=C\c1ccccc1Cl please.
Given back: 87 % of control

Asked: Quote T/C reported for C=C(N1CCCCC1)N1CCCCC1 please.
Given back: 100 % of control

Asked: Quote T/C reported for O=C(COC(=O)c1ccccc1)NCCCCc1ccccc1 please.
Given back: 96 % of control

Asked: Quote T/C reported for CN(C)S(=O)(=O)c1ccc(N=NN2CCOCC2)cc1 please.
Given back: 115 % of control

---

- System: L1210 leukemia ip in BDF1 mice, survival T/C
- experiment.notes: NCI In Vivo Anticancer Drug Screen. Data for tumor model L1210 Leukemia (intraperitoneal) in B6D2F1 (BDF1) mice
- conditions: endpoint: mean survival time; dose: 100.0 mg/kg/injection; schedule: Q01DX009 (ip); vehicle: Klucel (hydroxypropylcellulose) (HPC); higher = longer survival
Inconclusive results and toxic doses are left out.
observable: T/C

These solved cases illustrate the format of a correct answer.
compound | observable | result
O=C(Nc1ccc(Cl)c(Cl)c1)Nc1cccc2nsnc12 | T/C | 92 % of control
CC(=O)Oc1ccc(C2(c3ccc(OC(C)=O)cc3)C(=O)Nc3ccccc32)cc1 | T/C | 103 % of control
O=C1C=C(c2ccccc2)C2(c3ccccc3)OC2O1 (stereo unspecified) | T/C | 109 % of control
Cc1c(C)c(Cl)c(C)c(Cl)c1O | T/C | 94 % of control
Cc1ccc(C)c(NC(=O)OCCOc2ccccc2)c1 | T/C | 101 % of control
Cc1ccc(/C([O-])=C(\C(=S)Nc2cccc(C(F)(F)F)c2)[n+]2ccccc2)cc1 | T/C | 103 % of control

Asked: Quote T/C reported for CSCCC(NC(=O)COc1ccc(Cl)cc1Cl)C(=O)O (stereo unspecified) please.
Given back: 100 % of control

Asked: Quote T/C reported for O=C1CCC(c2ccccc2)=NN1c1ccccc1 please.
Given back: 96 % of control

---

- Test system: L1210 leukemia ip in BDF1 mice, survival T/C
- experiment.notes: NCI In Vivo Anticancer Drug Screen. Data for tumor model L1210 Leukemia (intraperitoneal) in B6D2F1 (BDF1) mice
- conditions: endpoint: mean survival time; dose: 400.0 mg/kg/injection; schedule: Q04DX003 (ip); vehicle: saline sonified; higher = longer survival
Toxic doses and inconclusive results are not listed.
observable: T/C

molecule | measured.target | observable | result
CCCc1nc2ccccc2c(=O)n1/N=C/c1ccsc1 | L1210 leukemia ip in BDF1 mice, survival T/C | T/C | 94 % of control
NSc1nc2ccccc2s1 | L1210 leukemia ip in BDF1 mice, survival T/C | T/C | 107 % of control
O=C1NCCS1 | L1210 leukemia ip in BDF1 mice, survival T/C | T/C | 106 % of control

Next up:
Asked: Retrieve T/C on L1210 leukemia ip in BDF1 mice, survival T/C; query CCOC(=O)CCC(C)(C#N)C(C#N)C(=O)OCC (centres undefined)
Given back: 98 % of control

---

- Test system: L1210 leukemia ip in BDF1 mice, survival T/C
- experiment.notes: NCI In Vivo Anticancer Drug Screen. Data for tumor model L1210 Leukemia (intraperitoneal) in B6D2F1 (BDF1) mice
- conditions: endpoint: mean survival time; dose: 100.0 mg/kg/injection; schedule: Q04DX003 (ip); vehicle: acetone; higher = longer survival
Inconclusive results and toxic doses are left out.
observable: T/C

compound | measured.target | T/C
O=[N+]([O-])c1c(Br)ncn1Cc1ccccc1 | L1210 leukemia ip in BDF1 mice, survival T/C | 99 % of control

Asked: Quote T/C reported for COc1cc(N)ccn1 please.
Given back: 95 % of control

Asked: Quote T/C reported for O=C(O)C1CC=CCC1C(=O)NC(O)C(Cl)(Cl)Cl (configuration not stated) please.
Given back: 93 % of control

Asked: Quote T/C reported for CC(C)(C)OC(=O)NN=C1CCC(C(C)(C)C)CC1 (configuration not stated) please.
Given back: 98 % of control

Asked: Quote T/C reported for NN(C(=O)c1ccc([N+](=O)[O-])cc1)C1CCCCC1 please.
Given back: 96 % of control

Asked: Quote T/C reported for c1ccc(C(c2ccccc2)c2ccc3ccccc3n2)cc1 please.
Given back: 90 % of control

Asked: Quote T/C reported for COC(=O)C(C)C(=O)OC please.
Given back: 107 % of control

---

Catalogue of T/C readings, one per entry.
- Tested on: L1210 leukemia ip in BDF1 mice, survival T/C
- experiment.notes: NCI In Vivo Anticancer Drug Screen. Data for tumor model L1210 Leukemia (intraperitoneal) in B6D2F1 (BDF1) mice
- conditions: endpoint: mean survival time; dose: 100.0 mg/kg/injection; schedule: Q04DX003 (ip); vehicle: saline; higher = longer survival
Inconclusive results and toxic doses are left out.

These solved cases illustrate the format of a correct answer.
molecule | measured.target | T/C
CO[Si](OC)(OC)OC | L1210 leukemia ip in BDF1 mice, survival T/C | 103 % of control
OCCCN1CCC2(CC1)SSC1(CCN(CCCO)CC1)S2 | L1210 leukemia ip in BDF1 mice, survival T/C | 95 % of control
O=C(NC1CCCC2C(NC(=O)c3ccccc3)CCCC12)c1ccccc1 (stereo not drawn) | L1210 leukemia ip in BDF1 mice, survival T/C | 92 % of control
CC1CC2C(CC1O)C2(C)C (stereo not drawn) | L1210 leukemia ip in BDF1 mice, survival T/C | 94 % of control

Asked: Retrieve T/C on L1210 leukemia ip in BDF1 mice, survival T/C; query O=C(NCCO)Nc1ccccc1F
Given back: 95 % of control

Asked: Retrieve T/C on L1210 leukemia ip in BDF1 mice, survival T/C; query CCCCNC(=O)OCC(C)(CCC)COC(N)=O (stereo not drawn)
Given back: 101 % of control

Asked: Retrieve T/C on L1210 leukemia ip in BDF1 mice, survival T/C; query O=C(c1ccccn1)N1CCOCC1
Given back: 98 % of control

Asked: Retrieve T/C on L1210 leukemia ip in BDF1 mice, survival T/C; query CCOC(=O)C(OCC)c1ccccc1 (stereo not drawn)
Given back: 97 % of control

Asked: Retrieve T/C on L1210 leukemia ip in BDF1 mice, survival T/C; query Nc1nc2nc[nH]c2c(N)c1Br (tested in a mixture with another compound)
Given back: 94 % of control

Asked: Retrieve T/C on L1210 leukemia ip in BDF1 mice, survival T/C; query CCOC(CN)OCC
Given back: 112 % of control

Each recorded value in this set is attributed to PubChem BioAssay AID248.
